Each entry below carries its reported IC50.
Target: SARM1 (Homo sapiens)
Construct: made in house; host or cells: NRK1-HEK293T cells, transiently transfected; clarified lysate used unpurified
Sequence (Q6SZW1 with tags, fused parts or gaps): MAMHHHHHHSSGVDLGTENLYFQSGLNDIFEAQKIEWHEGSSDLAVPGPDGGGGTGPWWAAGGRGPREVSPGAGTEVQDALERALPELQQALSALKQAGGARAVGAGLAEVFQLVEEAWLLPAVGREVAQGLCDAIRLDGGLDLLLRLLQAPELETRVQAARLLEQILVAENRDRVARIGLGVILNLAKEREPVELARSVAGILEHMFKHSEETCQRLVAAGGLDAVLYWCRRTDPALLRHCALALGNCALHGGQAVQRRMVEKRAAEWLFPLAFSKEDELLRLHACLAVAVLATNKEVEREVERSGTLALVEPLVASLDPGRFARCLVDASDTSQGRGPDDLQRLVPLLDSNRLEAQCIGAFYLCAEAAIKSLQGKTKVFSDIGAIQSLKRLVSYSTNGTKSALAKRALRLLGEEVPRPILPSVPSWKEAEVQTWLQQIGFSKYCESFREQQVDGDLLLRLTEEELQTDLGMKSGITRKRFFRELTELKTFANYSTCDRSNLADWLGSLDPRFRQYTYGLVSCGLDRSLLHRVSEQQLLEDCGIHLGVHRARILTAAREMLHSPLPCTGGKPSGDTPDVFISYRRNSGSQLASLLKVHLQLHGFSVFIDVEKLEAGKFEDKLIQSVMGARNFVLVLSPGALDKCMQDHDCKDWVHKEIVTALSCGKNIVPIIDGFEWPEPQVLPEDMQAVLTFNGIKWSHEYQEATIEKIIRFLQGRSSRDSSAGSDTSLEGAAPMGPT
Experiment: ARM-SAM-TIR SARM1 IC50 assay (NADase activity, NAD+ cleavage)
Assay type: biochemical
Conditions: ARM-SAM-TIR lysate 5 μg/mL from NRK1-HEK293T cells; 2 h pre-incubation; 5 μM NAD+; 2 hr room temperature; NAD+ and ADPR by RapidFire MS; read-out: SARM1 IC50

[
  {
    "RECORD_SMILES": "COc1cncc(C(=O)NCc2cccnc2)n1",
    "SYSTEM_UNDER_TEST": "SARM1 (Homo sapiens)",
    "IC50": "> 30 µM"
  },
  {
    "RECORD_SMILES": "COc1cncc(NCc2ccc(N3CCN(c4ccccc4)CC3)nc2)n1",
    "SYSTEM_UNDER_TEST": "SARM1 (Homo sapiens)",
    "IC50": "> 30 µM"
  },
  {
    "RECORD_SMILES": "COc1cncc(NCc2ccc(N3CCN(C(C)C)CC3)nc2)n1",
    "SYSTEM_UNDER_TEST": "SARM1 (Homo sapiens)",
    "IC50": "5 to 15 µM"
  }
]

Q: Quick check: IC50 on SARM1 (Homo sapiens), item "CCOc1cncc(NCc2ccc(N3CCN(CC)CC3)cc2)n1" ?
A: 5 to 15 µM

Q: Now consider "COc1nc(NCc2cccnc2)cnc1C" .
A: 5 to 15 µM

Provenance of the data: patent US12595252B2
